All figures here come from the supplement of paper PMC9942566.

This section presents compounds with their documented PosmB-lux reporter fold induction values.
Test system: Serratia marcescens K904 PosmB-luxCDABE reporter (pMQ747)
Assay: PosmB-lux reporter fold induction (RLU/OD600 relative to no-compound control), highest over Biolog concentrations; higher = stronger reporter activation
Conditions: ΔrcsB mutant CMS5177; 4 h
// keep it numeric: no unit symbol after the value

Below, each entry is followed by its recorded PosmB-lux reporter fold induction result.
Query: # PosmB-lux reporter fold induction lookup, item C[C@H]1c2cccc(O)c2C(=O)C2=C(O)[C@]3(O)C(=O)C(C(N)=O)=C(O)[C@@H](N(C)C)[C@@H]3[C@@H](O)[C@@H]21 [Doxycycline] (Biolog plate: PM13, well positions: C5-8)
Reply: 1.91

Query: # PosmB-lux reporter fold induction lookup, item CCCCCCCCCCCC[N+](C)(C)CCOc1ccccc1 [Domiphen bromide] (Biolog plate: PM15, well positions: D5-8)
Reply: 2.39

Query: # PosmB-lux reporter fold induction lookup, item NO [hydroxylamine] (Biolog plate: PM19, well positions: G9-12)
Reply: 1.39

Query: # PosmB-lux reporter fold induction lookup, item Cc1cc(NS(=O)(=O)c2ccc(N)cc2)no1 [Sulfa-methoxazole] (Biolog plate: PM12, well positions: G5-8)
Reply: 1.9

Query: # PosmB-lux reporter fold induction lookup, item CN[C@@H]1[C@@H](O)[C@@H](O[C@@H]2[C@@H](O)[C@H](O[C@H]3OC(CN)=CC[C@H]3N)[C@@H](N)C[C@H]2N)OC[C@]1(C)O [Sisomicin] (Biolog plate: PM12, well positions: D1-4)
Reply: 1.29

Query: # PosmB-lux reporter fold induction lookup, item C/C=C/C=C/C(=O)O [sorbic acid] (Biolog plate: PM16, well positions: H9-12)
Reply: 4.84

Query: # PosmB-lux reporter fold induction lookup, item O=C(OC[C@H]1O[C@@H](OC(=O)c2cc(O)c(O)c(OC(=O)c3cc(O)c(O)c(O)c3)c2)[C@H](OC(=O)c2cc(O)c(O)c(OC(=O)c3cc(O)c(O)c(O)c3)c2)[C@@H](OC(=O)c2cc(O)c(O)c(OC(=O)c3cc(O)c(O)c(O)c3)c2)[C@@H]1OC(=O)c1cc(O)c(O)c(OC(=O)c2cc(O)c(O)c(O)c2)c1)c1cc(O)c(O)c(OC(=O)c2cc(O)c(O)c(O)c2)c1 [tannic acid] (Biolog plate: PM17, well positions: F9-12)
Reply: 0.888

Query: # PosmB-lux reporter fold induction lookup, item Cc1ccccc1C(OCCN(C)C)c1ccccc1 (centres undefined) [orphenadrine] (Biolog plate: PM20, well positions: B1-4)
Reply: 1.4

Next:
Query: # PosmB-lux reporter fold induction lookup, item CN[C@H](CC(C)C)C(=O)N[C@H]1C(=O)N[C@@H](CC(N)=O)C(=O)N[C@H]2C(=O)N[C@H]3C(=O)N[C@H](C(=O)N[C@H](C(=O)O)c4cc(O)cc(O)c4-c4cc3ccc4O)[C@H](O)c3ccc(c(Cl)c3)Oc3cc2cc(c3O[C@@H]2O[C@H](CO)[C@@H](O)[C@H](O)[C@H]2O[C@H]2C[C@](C)(N)[C@H](O)[C@H](C)O2)Oc2ccc(cc2Cl)[C@H]1O [Vancomycin] (Biolog plate: PM12, well positions: C5-8)
Reply: 1.21
